Target: GATA4–NKX2-5 transcriptional synergy (Mus musculus, UniProt P42582+Q08369)
Construct: expressed in transfected cells; host or cells: COS-1
Sequence (Q08369 whole entry): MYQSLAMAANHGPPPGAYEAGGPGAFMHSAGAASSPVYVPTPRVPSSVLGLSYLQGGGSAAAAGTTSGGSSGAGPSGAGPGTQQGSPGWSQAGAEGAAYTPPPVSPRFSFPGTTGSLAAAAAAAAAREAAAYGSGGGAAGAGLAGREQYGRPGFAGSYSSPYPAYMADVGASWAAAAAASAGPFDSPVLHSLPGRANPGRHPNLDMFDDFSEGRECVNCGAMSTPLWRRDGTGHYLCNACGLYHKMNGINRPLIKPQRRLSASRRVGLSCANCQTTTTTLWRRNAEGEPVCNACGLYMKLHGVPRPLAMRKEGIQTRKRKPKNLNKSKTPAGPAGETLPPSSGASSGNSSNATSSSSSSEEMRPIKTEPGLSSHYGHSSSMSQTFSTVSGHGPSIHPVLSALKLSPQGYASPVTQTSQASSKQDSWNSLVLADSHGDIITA
Sequence (P42582 whole entry): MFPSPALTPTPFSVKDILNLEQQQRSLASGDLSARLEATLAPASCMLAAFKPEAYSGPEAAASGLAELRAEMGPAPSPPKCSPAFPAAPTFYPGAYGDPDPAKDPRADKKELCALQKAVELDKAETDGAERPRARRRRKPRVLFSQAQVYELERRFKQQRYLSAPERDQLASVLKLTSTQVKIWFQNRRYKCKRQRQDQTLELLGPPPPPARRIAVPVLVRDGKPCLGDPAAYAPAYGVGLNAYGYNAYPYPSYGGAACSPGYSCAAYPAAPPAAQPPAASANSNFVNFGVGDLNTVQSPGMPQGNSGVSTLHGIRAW
Test: GATA4–NKX2-5 transcriptional synergy luciferase reporter assay (3xNKE reporter, COS-1 cells)
Type: cell-based
Conditions: COS-1; 10 µM, luciferase reporter activity, % of control
I'd be grateful if you could share measured activity at 10 µM for these entries.
State just the number; it will be interpreted in %.

GATA4–NKX2-5 transcriptional synergy (Mus musculus, UniProt P42582+Q08369) data for CCN(CC)c1ccc(C(=O)Nc2c(C)noc2C)cc1 ; its activity at 10 µM: 97.4

GATA4–NKX2-5 transcriptional synergy (Mus musculus, UniProt P42582+Q08369) data for CCN(CC)c1ccc(NC(=O)c2cnoc2C2CC2)cc1 [Compound 47r] ; its activity at 10 µM: 145

GATA4–NKX2-5 transcriptional synergy (Mus musculus, UniProt P42582+Q08369) data for Nc1c(/N=N/c2ccc([N+](=O)[O-])cc2)c(-c2ccccc2)nn1-c1ccccc1 ; its activity at 10 µM: 61.2

GATA4–NKX2-5 transcriptional synergy (Mus musculus, UniProt P42582+Q08369) data for Cc1onc(-c2ccccc2)c1NC(=O)CCCCCBr ; its activity at 10 µM: 78.2

GATA4–NKX2-5 transcriptional synergy (Mus musculus, UniProt P42582+Q08369) data for CCN(CC)c1ccc(NC(=O)c2c(-c3ccc([N+](=O)[O-])cc3)noc2C)cc1 [Compound 39a] ; its activity at 10 µM: 99.8

GATA4–NKX2-5 transcriptional synergy (Mus musculus, UniProt P42582+Q08369) data for Cc1onc(-c2ccccc2)c1C(=O)Nc1ccc(Nc2ccccc2)cc1 ; its activity at 10 µM: 89.1

GATA4–NKX2-5 transcriptional synergy (Mus musculus, UniProt P42582+Q08369) data for Cc1onc(-c2ccccc2)c1N=Cc1ccc(N(CCO)CCO)cc1 ; its activity at 10 µM: 118

GATA4–NKX2-5 transcriptional synergy (Mus musculus, UniProt P42582+Q08369) data for Cc1onc(-c2ccccc2)c1COCc1ccc2ccccc2c1 ; its activity at 10 µM: 90.6

GATA4–NKX2-5 transcriptional synergy (Mus musculus, UniProt P42582+Q08369) data for CCN(CC)c1ccc(C(=O)On2nnc3ccccc32)cc1 ; its activity at 10 µM: 114

GATA4–NKX2-5 transcriptional synergy (Mus musculus, UniProt P42582+Q08369) data for CCCCCc1ccc(C(=O)Nc2c(-c3ccccc3)noc2C)cc1 ; its activity at 10 µM: 77.6

GATA4–NKX2-5 transcriptional synergy (Mus musculus, UniProt P42582+Q08369) data for COc1ccc(C(=O)Nc2c(-c3ccccc3)noc2C)cc1 ; its activity at 10 µM: 96.2

GATA4–NKX2-5 transcriptional synergy (Mus musculus, UniProt P42582+Q08369) data for CCN(CC)c1ccc(/N=N/c2c(C)noc2C)cc1 ; its activity at 10 µM: 101

GATA4–NKX2-5 transcriptional synergy (Mus musculus, UniProt P42582+Q08369) data for CCN(C(=O)c1c(-c2ccccc2)noc1C)c1ccc(Nc2ccccc2)cc1 ; its activity at 10 µM: 87.2

GATA4–NKX2-5 transcriptional synergy (Mus musculus, UniProt P42582+Q08369) data for Cc1onc(-c2ccccc2)c1N=Cc1ccc(N(C)C)cc1 ; its activity at 10 µM: 109

GATA4–NKX2-5 transcriptional synergy (Mus musculus, UniProt P42582+Q08369) data for CCN(CC)c1ccc(NC(=O)c2ccsc2)cc1 ; its activity at 10 µM: 108

GATA4–NKX2-5 transcriptional synergy (Mus musculus, UniProt P42582+Q08369) data for CCN(CC)c1ccc(NC(=O)c2ncoc2-c2ccccc2)cc1 [Compound 47a] ; its activity at 10 µM: 112

GATA4–NKX2-5 transcriptional synergy (Mus musculus, UniProt P42582+Q08369) data for Cc1onc(-c2ccccc2)c1NC(=O)OC(C)(C)C ; its activity at 10 µM: 87.1

GATA4–NKX2-5 transcriptional synergy (Mus musculus, UniProt P42582+Q08369) data for CN(C)c1ccc(/N=C/c2c[nH]nc2-c2ccc(F)cc2)cc1 ; its activity at 10 µM: 100

GATA4–NKX2-5 transcriptional synergy (Mus musculus, UniProt P42582+Q08369) data for CCN(CC)c1ccc(/N=C/c2onc(-c3ccccc3)c2C(=O)Nc2ccc(N(CC)CC)cc2)cc1 ; its activity at 10 µM: 54.1

GATA4–NKX2-5 transcriptional synergy (Mus musculus, UniProt P42582+Q08369) data for Cc1onc(-c2ccccc2)c1/N=C/c1ccc(C(C)N(C)C)cc1 (stereo not drawn) ; its activity at 10 µM: 98.2

GATA4–NKX2-5 transcriptional synergy (Mus musculus, UniProt P42582+Q08369) data for C#CC[N+](CC)(CC)c1ccc(NC(=O)c2c(-c3ccccc3)noc2C)cc1 ; its activity at 10 µM: 101

GATA4–NKX2-5 transcriptional synergy (Mus musculus, UniProt P42582+Q08369) data for CCN(CC)c1ccc(NC(=O)c2nn(-c3ccccc3)nc2C)cc1 [Compound 47b] ; its activity at 10 µM: 101

GATA4–NKX2-5 transcriptional synergy (Mus musculus, UniProt P42582+Q08369) data for Cc1onc(-c2ccccc2)c1C(=O)Nc1ccc(-c2ccccc2)cc1 ; its activity at 10 µM: 112

GATA4–NKX2-5 transcriptional synergy (Mus musculus, UniProt P42582+Q08369) data for Cc1onc(-c2ccccc2)c1NC(=O)Nc1ccc(C(=O)c2ccccc2)cc1 ; its activity at 10 µM: 72.7

GATA4–NKX2-5 transcriptional synergy (Mus musculus, UniProt P42582+Q08369) data for Cc1onc(-c2ccccc2)c1NC(=O)Nc1cccc(C(F)(F)F)c1 ; its activity at 10 µM: 86.5

GATA4–NKX2-5 transcriptional synergy (Mus musculus, UniProt P42582+Q08369) data for Cc1onc(-c2ccccc2)c1C(=O)N1CCc2cc([N+](=O)[O-])ccc21 ; its activity at 10 µM: 91.3

GATA4–NKX2-5 transcriptional synergy (Mus musculus, UniProt P42582+Q08369) data for Cc1onc(-c2ccccc2)c1COCc1ccc(OC(F)(F)F)cc1 ; its activity at 10 µM: 82.9

GATA4–NKX2-5 transcriptional synergy (Mus musculus, UniProt P42582+Q08369) data for Cc1onc(-c2ccccc2)c1C(=O)N(C1=NC(C)CS1)c1ccc(Cl)cc1 (stereo not drawn) ; its activity at 10 µM: 166

GATA4–NKX2-5 transcriptional synergy (Mus musculus, UniProt P42582+Q08369) data for CCN(CC)c1ccc(NS(=O)(=O)c2c(C)noc2C)cc1 ; its activity at 10 µM: 79.1

GATA4–NKX2-5 transcriptional synergy (Mus musculus, UniProt P42582+Q08369) data for CCCCOc1ccc(NC(=O)c2c(-c3ccccc3)noc2C)cn1 ; its activity at 10 µM: 79
